// provenance: paper PMC11850223

# assay_system: T1, Hera (Thermus thermophilus, UniProt O07897 1-510)
# T1 sequence: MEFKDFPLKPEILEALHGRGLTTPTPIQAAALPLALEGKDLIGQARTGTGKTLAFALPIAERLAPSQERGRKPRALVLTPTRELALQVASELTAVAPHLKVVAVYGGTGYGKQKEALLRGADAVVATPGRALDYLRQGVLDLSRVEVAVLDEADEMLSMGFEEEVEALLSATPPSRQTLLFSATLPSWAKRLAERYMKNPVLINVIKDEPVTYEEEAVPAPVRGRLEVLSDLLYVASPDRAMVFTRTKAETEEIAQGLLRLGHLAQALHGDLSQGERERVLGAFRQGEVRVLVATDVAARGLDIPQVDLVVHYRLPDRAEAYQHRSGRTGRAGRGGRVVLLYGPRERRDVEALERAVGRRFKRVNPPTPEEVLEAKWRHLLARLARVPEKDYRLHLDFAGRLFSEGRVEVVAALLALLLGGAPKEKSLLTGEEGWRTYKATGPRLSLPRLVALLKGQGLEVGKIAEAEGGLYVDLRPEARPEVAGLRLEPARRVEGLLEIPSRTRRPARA
# procedure_details: fluorescence anisotropy
Each record here notes measured pKd.
Conceptually, pKd converts a concentration in mol/L into minus its log10.

Data request: // pKd lookup, key: GCAGGUCCCAAGGGUUGGGCUGUUCGCCCAUU (structured_RNA) [fl-32mer]
Data returned: 7.22

Data request: // pKd lookup, key: fl-32/9mer (structured_RNA) RNA 1: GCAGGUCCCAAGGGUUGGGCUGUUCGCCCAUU RNA 2: UUGGGACCU
Data returned: 5.70
